test: Tmax in C57 mouse at 10 mg/kg, ip; format: ADME, organism-based; parameters: dose 10 mg/kg, route intraperitoneal; settings: in vivo
property.label: Tmax (min)
The reply should be a number in min, with the unit left off.

See these solved cases before continuing.
COc1cc(N2CCCNCC2)ccc1-c1nc2c(C)nn(C3CCCCC3)c(=O)c2[nH]1 : 15
COc1cc(N)ccc1-c1nc2c(C)nn(C3CCCCC3)c(=O)c2[nH]1 : 15

Item: COc1cc(N2CCC(N)CC2)ccc1-c1nc2c(C)nn(C3CCCCC3)c(=O)c2[nH]1 | Tmax: 240

---

experiment: Metabolic stability in human liver microsomes assessed as compound remaining after 60 mins; format: ADME, Microsome; conditions: read-out: Stability
Recorded remaining at 1 h for the following molecules
The reply should be a number in %, with the unit left off.

See these solved cases before continuing.
COc1cc(N)ccc1-c1nc2c(C)nn(C3CCCCC3)c(=O)c2[nH]1 : 43
COc1cc(N2CCC(N)CC2)ccc1-c1nc2c(C)nn(C3CCCCC3)c(=O)c2[nH]1 : 100

Item: COc1cc(N2CCCNCC2)ccc1-c1nc2c(C)nn(C3CCCCC3)c(=O)c2[nH]1 | remaining at 1 h: 90

---

experiment: Cmax in C57 mouse at 30 mg/kg, ip; format: ADME, organism-based; parameters: dose 30 mg/kg, route intraperitoneal; conditions: in vivo
property.label: Cmax (ng/mL)
The reply should be a number in ng/mL, with the unit left off.

Item: COc1cc(N)ccc1-c1nc2c(C)nn(C3CCCCC3)c(=O)c2[nH]1 | Cmax: 6350

---

assay: Cmax in C57 mouse at 100 mg/kg, ip; assay type: ADME, organism-based; parameters: dose 100 mg/kg, route intraperitoneal; conditions: in vivo
property.label: Cmax (ng/mL)
The reply should be a number in ng/mL, with the unit left off.

Item: COc1cc(N)ccc1-c1nc2c(C)nn(C3CCCCC3)c(=O)c2[nH]1 | Cmax: 44200

---

experiment: Drug uptake in C57 mouse brain at 30 mg/kg, ip after 30 mins; assay type: ADME, organism-based; design: dose 30 mg/kg, route intraperitoneal; conditions: read-out: Drug uptake
property.label: concentration at 0.5 h (ng/g)
The reply should be a number in ng/g, with the unit left off.

Item: COc1cc(N)ccc1-c1nc2c(C)nn(C3CCCCC3)c(=O)c2[nH]1 | concentration at 0.5 h: 16000

---

assay: Plasma concentration in C57 mouse at 100 mg/kg, ip after 30 mins; format: ADME, organism-based; set-up: dose 100 mg/kg, route intraperitoneal
property.label: concentration at 0.5 h

Item: COc1cc(N)ccc1-c1nc2c(C)nn(C3CCCCC3)c(=O)c2[nH]1 | concentration at 0.5 h: 44200 ng/mL

---

experiment: AUC in C57 mouse at 100 mg/kg, ip; assay type: ADME, organism-based; design: dose 100 mg/kg, route intraperitoneal; details: plasma
property.label: AUC (µg·h/mL)
The reply should be a number in µg·h/mL, with the unit left off.

Item: COc1cc(N)ccc1-c1nc2c(C)nn(C3CCCCC3)c(=O)c2[nH]1 | AUC: 168

---

molecular target: High affinity 3',5'-cyclic-AMP phosphodiesterase 7A (Homo sapiens); assay: Inhibition of cloned human recombinant PDE7A assessed as [3H]cAMP hydrolysis by radiometric assay
Sequence (Q13946 whole entry): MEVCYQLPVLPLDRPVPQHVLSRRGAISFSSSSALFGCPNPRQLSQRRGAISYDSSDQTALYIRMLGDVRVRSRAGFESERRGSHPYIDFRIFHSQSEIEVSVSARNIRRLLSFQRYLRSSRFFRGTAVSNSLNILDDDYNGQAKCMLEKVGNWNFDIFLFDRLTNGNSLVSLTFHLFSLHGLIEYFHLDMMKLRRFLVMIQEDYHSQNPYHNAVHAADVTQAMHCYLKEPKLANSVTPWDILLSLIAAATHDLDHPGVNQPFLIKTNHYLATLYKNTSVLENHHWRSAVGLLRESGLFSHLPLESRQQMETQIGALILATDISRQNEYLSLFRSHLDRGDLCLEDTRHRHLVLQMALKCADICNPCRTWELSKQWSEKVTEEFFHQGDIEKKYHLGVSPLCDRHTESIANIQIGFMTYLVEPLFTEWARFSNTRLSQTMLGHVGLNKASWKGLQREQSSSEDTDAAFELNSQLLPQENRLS
Threshold-based label: IC50 under 40 nM gives 1.0, IC50 not under 40 nM gives 0.0.

Examples with answers:
COc1cc(N2CCNCC2)ccc1-c1nc2c(C)nn(C3CCCCC3)c(=O)c2[nH]1 : 0.0
COc1cc(O[C@@H]2CCNC2)ccc1-c1nc2c(C)nn(C3CCCCC3)c(=O)c2[nH]1 : 0.0
COc1cc(-c2cn[nH]c2)ccc1-c1nc2c(C)nn(C3CCCCC3)c(=O)c2[nH]1 : 0.0
COc1cc(CCC(N)=O)ccc1-c1nc2c(C)nn(C3CCCCC3)c(=O)c2[nH]1 : 0.0

# strict comparison: is reported IC50 < 40 nM? input = COc1cc(N2CCC(O)CC2)ccc1-c1nc2c(C)nn(C3CCCCC3)c(=O)c2[nH]1
0.0
